experimental-system: Adrenergic β2 (Homo sapiens, UniProt P07550)
Construct: Adherent H292 cells were removed from tissue culture flasks; endogenous in cells; host or cells: H292 cells
Sequence (P07550 whole entry): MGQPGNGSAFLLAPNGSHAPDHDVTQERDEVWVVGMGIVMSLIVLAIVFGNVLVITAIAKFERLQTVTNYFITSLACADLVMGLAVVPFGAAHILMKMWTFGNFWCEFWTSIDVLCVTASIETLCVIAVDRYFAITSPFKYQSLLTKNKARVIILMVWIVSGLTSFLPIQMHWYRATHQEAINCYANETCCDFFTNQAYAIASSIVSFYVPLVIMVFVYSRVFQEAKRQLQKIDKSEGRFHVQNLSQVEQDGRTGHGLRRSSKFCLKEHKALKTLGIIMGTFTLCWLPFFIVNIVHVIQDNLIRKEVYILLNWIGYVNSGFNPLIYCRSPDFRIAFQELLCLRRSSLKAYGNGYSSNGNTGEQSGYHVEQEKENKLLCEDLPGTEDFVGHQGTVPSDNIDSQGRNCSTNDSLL
assay-notes: Adrenergic β2 mediated cAMP production in H292 cells (AlphaScreen cAMP detection)
Assay type: cell-based
condition: Intrinsic Activity, fraction relative to the maximum activity determined for formoterol
Where a name gives a salt, the structure may show the parent alone.
endpoint-label: β2 Int Act

compound="O=C(CCNCCc1ccc(Cl)c(Cl)c1)N(CCNCCc1ccc(O)c2[nH]c(=O)sc12)C1CCC(F)(F)CC1 [Example 49, bis-trifluoroacetic acid salt]" endpoint_label="β2 Int Act" assay_result=0.59
compound="O=C(CCNCCc1ccccc1)N(CCNCCc1ccc(O)c2[nH]c(=O)sc12)C1CCC(F)(F)CC1 [Example 4, bis-trifluoroacetic acid salt]" endpoint_label="β2 Int Act" assay_result=0.79
compound="CC(C)(C)CN(CCNCCc1ccc(O)c2[nH]c(=O)sc12)C(=O)CCNCCc1ccccc1 [Example 6, bis-trifluoroacetic acid salt]" endpoint_label="β2 Int Act" assay_result=0.89
compound="O=C(CCNCCc1ccccc1)N(CCNCCc1ccc(O)c2[nH]c(=O)sc12)C1CCCCCC1 [Example 23, bis-trifluoroacetic acid salt]" endpoint_label="β2 Int Act" assay_result=0.85
compound="O=C(CCNCCc1ccccc1)N(CCNCCc1ccc(O)c2[nH]c(=O)sc12)C1CCSCC1 [Example 62, bis-trifluoroacetic acid salt]" endpoint_label="β2 Int Act" assay_result=0.87
compound="Cc1cccc(CCNCCC(=O)N(CCNCCc2ccc(O)c3[nH]c(=O)sc23)C2CCCCC2)c1 [Example 14, bis-trifluoroacetic acid salt]" endpoint_label="β2 Int Act" assay_result=0.84
compound="CC(C)(CO)CN(CCNCCc1ccc(O)c2[nH]c(=O)sc12)C(=O)CCNCCc1cccc(Cl)c1 [Example 66, bis-trifluoroacetic acid salt]" endpoint_label="β2 Int Act" assay_result=0.59

---

experimental-system: Adrenergic β2 (Homo sapiens)
Construct: Adherent H292 cells were removed from tissue culture flasks; endogenous in cells; host or cells: H292 cells
assay-notes: Adrenergic β2 mediated cAMP production in H292 cells (AlphaScreen cAMP detection)
Type: cell-based
condition: Intrinsic Activity, fraction relative to the maximum activity determined for formoterol
Counter-ions that a name gives are not always drawn.
endpoint-label: β2 Int Act

compound="O=C(CCNCCc1ccc(F)cc1)N(CCNCCc1ccc(O)c2[nH]c(=O)sc12)C1CCCCC1 [Example 16, bis-trifluoroacetic acid salt]" experimental_system="Adrenergic β2 (Homo sapiens)" endpoint_label="β2 Int Act" assay_result=0.91
compound="COc1cccc(CCNCCC(=O)N(CCNCCc2ccc(O)c3[nH]c(=O)sc23)CC(C)(C)C)c1 [Example 43, bis-trifluoroacetic acid salt]" experimental_system="Adrenergic β2 (Homo sapiens)" endpoint_label="β2 Int Act" assay_result=0.67
compound="O=C(CCNCCc1cccs1)N(CCNCCc1ccc(O)c2[nH]c(=O)sc12)C1CCCCC1 [Example 35, bis-trifluoroacetic acid salt]" experimental_system="Adrenergic β2 (Homo sapiens)" endpoint_label="β2 Int Act" assay_result=0.91
compound="O=C(CCNC[C@@H](O)c1ccccc1)N(CCNCCc1ccc(O)c2[nH]c(=O)sc12)C1CCCCC1 [Example 74, bis-trifluoroacetic acid salt]" experimental_system="Adrenergic β2 (Homo sapiens)" endpoint_label="β2 Int Act" assay_result=0.79
compound="O=C(CCNCCc1cccc(Cl)c1)N(CCNCCc1ccc(O)c2[nH]c(=O)sc12)C1Cc2ccccc2C1 [Example 42, bis-trifluoroacetic acid salt]" experimental_system="Adrenergic β2 (Homo sapiens)" endpoint_label="β2 Int Act" assay_result=0.82

---

The following molecules are listed with their measured β2 Int Act values.
experimental-system: Adrenergic β2 (Homo sapiens)
Construct: Adherent H292 cells were removed from tissue culture flasks; endogenous in cells; host or cells: H292 cells
assay-notes: Adrenergic β2 mediated cAMP production in H292 cells (AlphaScreen cAMP detection)
Type: cell-based
condition: Intrinsic Activity, fraction relative to the maximum activity determined for formoterol
Structures can show the parent of a compound that is named as a salt.
endpoint-label: β2 Int Act

molecule="O=C(CCNCCc1ccccc1Cl)N(CCNCCc1ccc(O)c2[nH]c(=O)sc12)C1CCC(F)(F)CC1 [Example 46, bis-trifluoroacetic acid salt]" endpoint_label="β2 Int Act" assay_result=0.78
molecule="O=C(CCNCCc1ccc(Cl)cc1)N(CCNCCc1ccc(O)c2[nH]c(=O)sc12)C1CCCCCC1 [Example 51, bis-trifluoroacetic acid salt]" endpoint_label="β2 Int Act" assay_result=0.59
molecule="O=C(CCNCCc1ccc(F)cc1F)N(CCNCCc1ccc(O)c2[nH]c(=O)sc12)C1CCCCCC1 [Example 55, bis-trifluoroacetic acid salt]" endpoint_label="β2 Int Act" assay_result=0.81
